- System: glycogen synthase kinase-3 (GSK3A per assay name; protocol says GSK3B)
- assayDetails: GSK3 binders on small-molecule microarrays, primary screen, biochemical, small-molecule microarray, 635 nm fluorescence, GSK3A (AID 1103); also: the record names both GSK3A and GSK3B
- assayConditions: small-molecule microarray binding, fluorescence 635 nm; higher = more signal
Entry flag: met if composite z-score reaches 1; not met if it does not.

(Q) Determine whether this molecule has composite z-score no lower than 1: O=C1OCCC/C=C\[C@H]2OC34C=CCN(c5ccc6ccccc6c5)C(=O)[C@H]3N(CCCCCCO)C(=O)[C@@H]4C12 (some centres undefined)
(A) not met

(Q) Next entry: `COc1ccc([Si](C)(C)[C@@H]2[C@@H](CC(=O)N3Cc4ccccc4C[C@H]3CO)O[C@]3(C(=O)N(C)c4c(Br)cc(C)cc43)[C@H]2C)cc1`
(A) not met

(Q) Another: `[N-]=[N+]=NCc1ccccc1[C@@H]1OC(c2ccc(OCCCO)cc2)=N[C@]1(CCS(=O)(=O)c1ccccc1)C(=O)NCc1ccccc1`
(A) met

(Q) Same question, `CCOC(=O)C[C@H]1[C@H](OC(=O)Cc2ccc3c(c2)OCO3)[C@@H](NC(=O)c2ccc(-c3ccccc3)cc2)c2cc(OCCCO)ccc2N1C(=O)Cc1ccc(OC)cc1` this time
(A) not met

(Q) Next record, please: `CC(C)(C)C(=O)N[C@@H](c1ccc(Cl)cc1)[C@]1(C)C[C@H]1C1CCCCC1`
(A) met

(Q) Param item: `C=CCOC(=O)[C@H]1[C@@H]2C(=O)O[C@@H](c3ccccc3)[C@@H](c3ccccc3)N2[C@@H](c2ccc(OCCOC(=O)[C@H]3C[C@H]4C(=O)N[C@@H](CC(C)C)C(=O)N4[C@H]3c3ccc(O)cc3)cc2)[C@]12C(=O)Nc1ccc(I)cc12`
(A) met

(Q) What do you have for CN1C(=O)C2C=CC(C(O)C3CCCCC3)N(Nc3ccc([N+](=O)[O-])cc3[N+](=O)[O-])C2C1=O (centres undefined) ?
(A) not met

(Q) Same thing, different molecule: `[N-]=[N+]=Nc1ccccc1C[C@]1(C(N)=O)N=C(c2ccc(OCCCO)cc2)O[C@H]1c1ccccc1`
(A) not met

(Q) Input `CO[C@H]1O[C@H](CO)[C@@H](OC(=O)Nc2ccc(Br)cc2)[C@H](OC(=O)c2cc3ccccc3[nH]2)[C@H]1OC(=O)c1cc2ccccc2[nH]1`
(A) met

(Q) Now consider `CN(C)C(=O)[C@]1(Cc2ccccc2CN=[N+]=[N-])N=C(c2ccc(OCCCO)cc2)O[C@@H]1c1ccccc1CN=[N+]=[N-]` and answer again.
(A) met

(Q) Query `COc1ccc(CCNC(=O)[C@@]2(C)c3ccccc3C(=O)N(Cc3cc(F)cc(C(F)(F)F)c3)[C@H]2c2ccc(CO)cc2)cc1` next
(A) not met

(Q) Continue with `CCOC(=O)C[C@H]1[C@H](OC(=O)Cc2ccc3c(c2)OCO3)[C@@H](NC(=O)c2ccc(-c3ccccc3)cc2)c2cc(OCCCO)ccc2N1C(=O)c1ccc2ccccc2n1`
(A) not met

(Q) And for `C=C(CCCC)C(=O)CC[C@H](OC(=O)c1cccnc1)c1ccccc1OCCO` ?
(A) not met

(Q) Here is the next molecule: Cc1ccc(C(C)CC(O)C2C=CC3C(=O)N(C)C(=O)C3N2NC(=O)OC(C)(C)C)o1 (centres undefined)
(A) met
